Biological target: T1, ROR1 naturally expressed on human tumor cell lines (A549, Jeko-1, SW620, PA-1) (human, UniProt Q01973 30-937)
T1 construct: whole, on cells; also called cells expressing ROR1
T1 sequence (Q01973 30-937): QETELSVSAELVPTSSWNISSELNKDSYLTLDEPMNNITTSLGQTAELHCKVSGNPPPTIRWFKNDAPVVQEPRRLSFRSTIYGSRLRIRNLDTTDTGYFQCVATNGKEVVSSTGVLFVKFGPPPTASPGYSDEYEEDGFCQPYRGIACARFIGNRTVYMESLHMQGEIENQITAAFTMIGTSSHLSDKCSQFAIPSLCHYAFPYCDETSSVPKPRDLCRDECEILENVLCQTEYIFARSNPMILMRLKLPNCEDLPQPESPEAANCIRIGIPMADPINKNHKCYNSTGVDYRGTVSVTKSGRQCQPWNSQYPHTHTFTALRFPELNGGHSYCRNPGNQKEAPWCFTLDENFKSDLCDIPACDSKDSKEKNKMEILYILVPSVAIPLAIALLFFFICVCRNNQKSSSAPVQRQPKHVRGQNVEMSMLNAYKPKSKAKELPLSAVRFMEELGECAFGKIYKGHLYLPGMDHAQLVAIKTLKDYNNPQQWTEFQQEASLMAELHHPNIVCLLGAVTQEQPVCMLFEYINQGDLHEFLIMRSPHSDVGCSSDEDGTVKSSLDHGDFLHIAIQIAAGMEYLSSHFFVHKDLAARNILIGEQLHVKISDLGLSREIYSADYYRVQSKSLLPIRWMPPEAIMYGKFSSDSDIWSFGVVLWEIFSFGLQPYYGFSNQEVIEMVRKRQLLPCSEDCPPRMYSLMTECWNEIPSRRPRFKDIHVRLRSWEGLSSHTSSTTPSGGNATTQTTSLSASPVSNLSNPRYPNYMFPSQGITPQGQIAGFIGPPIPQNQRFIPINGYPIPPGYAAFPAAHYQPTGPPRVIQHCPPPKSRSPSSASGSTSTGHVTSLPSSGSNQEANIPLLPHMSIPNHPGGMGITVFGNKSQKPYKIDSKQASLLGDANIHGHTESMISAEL
Assay: FACS on Jeko-1 cells naturally expressing ROR1
Here the recorded Top (MFI) is given for each entry.
Just the number please, in MFI, no unit attached.

Solved cases (2 shown):
hz135A2B10-1.2 (antibody, human IgG1, kappa, V domains shown, Humanized, human IgG1/kappa) VH: QVQLVESGGGLVQPGGSLRLSCAASGFAFSTYGMAWVRQAPGKGLEWVASIHKGGFSTYYPDNVKGRFTISRDNDKNSLYLQMNSLRAEDTAVYYCIRHDWDGAMDYWGQGTLVTVSS VL: DIQMTQSPSSLSASVGDRVTITCKASQDINSYLNWYQQKPGKAPKTLIYRANRLVDGVPSRFSGSGSGQDYTLTISSLQPEDFATYYCLQFDEFPYTFGQGTKVEIKR	89700
UC-961 (antibody, V domains shown) VH: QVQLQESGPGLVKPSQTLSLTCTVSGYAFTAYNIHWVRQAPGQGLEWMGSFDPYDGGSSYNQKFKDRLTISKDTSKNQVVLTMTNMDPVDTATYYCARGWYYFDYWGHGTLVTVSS VL: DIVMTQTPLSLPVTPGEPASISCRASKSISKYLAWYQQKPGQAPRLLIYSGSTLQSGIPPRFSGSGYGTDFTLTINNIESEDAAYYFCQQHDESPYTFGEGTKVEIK	83200

Next binder, Top (MFI) to be filled in.
// Top (MFI) value for hz135A2B10-1.3 (antibody, human IgG1, kappa, V domains shown, Humanized, human IgG1/kappa) VH: QVQLVESGGGLVQPGGSLRLSCAASGFAFSTYGMAWVRQAPGKRLEWVASIHKGGFSTYYPDNVKGRFTISRDNDKNSLYLQMNSLRAEDTAVYYCIRHDWDGAMDYWGQGTLVTVSS VL: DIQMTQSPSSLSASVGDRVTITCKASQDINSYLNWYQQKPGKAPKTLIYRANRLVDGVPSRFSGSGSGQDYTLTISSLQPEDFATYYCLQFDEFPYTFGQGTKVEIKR : 86700
